- testTarget: PKG cKD line
- measurementProtocol: Compound susceptibility assay using cKD lines (72 h, Renilla luciferase)
- Assay type: cell-based, Plasmodium falciparum
- particulars: PKG cKD line, KD, [aTc] used 1.0
attributeMeasured: pIC50
Scale for pIC50: -log10 of concentration given in mol/L; no unit attached.

In: Looking for the measured pIC50 of CC(C)(CN)c1nc(-c2ccc(Cl)c(O)c2)c(-c2ccnc(N)n2)[nH]1 , can you help?
Out: 8.08

====

- testTarget: calcium-dependent protein kinase 1 (CDPK1) (PF3D7_0217500) (Plasmodium falciparum)
- Construct: endogenous in cells; host or cells: P. falciparum asexual blood-stage parasites (trophozoite stage)
- measurementProtocol: Competitive chemoproteomics in Pf lysates (Kinobeads / bead-immobilized compound)
- Type: binding
- particulars: five independent experiments, lowest tested concentration 0.1 μM; read-out: Kdapp, CDPK1
attributeMeasured: Kd

In: Looking for the measured Kd of CC(C)(CN)c1nc(-c2ccc(Cl)c(O)c2)c(-c2ccncc2)[nH]1 [MMV030084] , can you help?
Out: < 100 nM

====

- testTarget: TKL3 cKD line
- measurementProtocol: Compound susceptibility assay using cKD lines (72 h, Renilla luciferase)
- Type: cell-based, Plasmodium falciparum
- particulars: TKL3 cKD line, KD, [aTc] used 0.0
- Text: To study the interaction between the compounds and PKG (PF3D7_1436600), AAT (PF3D7_1231400), CDPK1 (PF3D7_0217500), TKL3 (PF3D7_1349300), PP1 (PF3D7_1414400), and URP (PF3D7_0808300), cKD lines were generated by fusing the transcripts with RNA aptamers for translation regulation with the TetR/DOZI system ([Ganesan et al., 2016]). […]
attributeMeasured: pIC50
Scale for pIC50: -log10 of concentration given in mol/L; no unit attached.

In: Looking for the measured pIC50 of CC(C)(CN)c1nc(-c2ccc(Cl)c(O)c2)c(-c2ccnc(N)n2)[nH]1 [MMV030734] , can you help?
Out: 7.09

====

- testTarget: calcium-dependent protein kinase 1 (CDPK1) (PF3D7_0217500) (Plasmodium falciparum, UniProt P62344)
- Construct: endogenous in cells; host or cells: P. falciparum asexual blood-stage parasites (trophozoite stage)
- Sequence (P62344 whole entry): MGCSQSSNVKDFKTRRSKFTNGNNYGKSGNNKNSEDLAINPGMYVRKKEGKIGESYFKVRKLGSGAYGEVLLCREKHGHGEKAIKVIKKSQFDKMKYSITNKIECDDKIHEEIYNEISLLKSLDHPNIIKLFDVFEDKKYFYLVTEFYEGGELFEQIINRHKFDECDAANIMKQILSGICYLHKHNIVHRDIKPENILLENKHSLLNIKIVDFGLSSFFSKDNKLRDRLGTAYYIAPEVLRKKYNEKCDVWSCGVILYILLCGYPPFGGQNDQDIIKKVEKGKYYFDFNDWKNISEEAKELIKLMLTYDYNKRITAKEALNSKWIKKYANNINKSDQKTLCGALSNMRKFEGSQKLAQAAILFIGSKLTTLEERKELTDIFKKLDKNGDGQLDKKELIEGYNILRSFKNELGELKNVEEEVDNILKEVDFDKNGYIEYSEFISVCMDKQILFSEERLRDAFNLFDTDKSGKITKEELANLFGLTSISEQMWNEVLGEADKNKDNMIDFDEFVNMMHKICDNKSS
- measurementProtocol: Competitive chemoproteomics in Pf lysates (Kinobeads / bead-immobilized compound)
- Type: binding
- particulars: '084-beads (bead-immobilized MMV030084); read-out: Kdapp, CDPK1
attributeMeasured: Kd (nM)
Respond numerically; units are nM and should not be typed.

In: Looking for the measured Kd of CC(C)(CN)c1nc(-c2ccc(Cl)c(O)c2)c(-c2ccncc2)[nH]1 [MMV030084] , can you help?
Out: 220

====

- testTarget: TKL3 cKD line
- measurementProtocol: Compound susceptibility assay using cKD lines (72 h, Renilla luciferase)
- Assay type: cell-based, Plasmodium falciparum
- particulars: TKL3 cKD line, Control, [aTc] used 50.0
attributeMeasured: IC50 (nM)
Respond numerically; units are nM and should not be typed.

In: Looking for the measured IC50 of CC(C)(CN)c1nc(-c2ccc(Cl)c(O)c2)c(-c2ccnc(N)n2)[nH]1 , can you help?
Out: 37.5

====

- testTarget: URP cKD line
- measurementProtocol: Compound susceptibility assay using cKD lines (72 h, Renilla luciferase)
- Assay type: cell-based, Plasmodium falciparum
- particulars: KD, [aTc] used 0.0
attributeMeasured: IC50 (nM)
Respond numerically; units are nM and should not be typed.

In: Looking for the measured IC50 of CC(C)(CN)c1nc(-c2ccc(Cl)c(O)c2)c(-c2ccnc(N)n2)[nH]1 [MMV030734] , can you help?
Out: 44.5

====

- testTarget: human protein extracts (Mixed: HEK-293/ K-562/ Placenta/ Hep G2) (Homo sapiens)
- Construct: endogenous in cells
- Sequence (P21127 whole entry): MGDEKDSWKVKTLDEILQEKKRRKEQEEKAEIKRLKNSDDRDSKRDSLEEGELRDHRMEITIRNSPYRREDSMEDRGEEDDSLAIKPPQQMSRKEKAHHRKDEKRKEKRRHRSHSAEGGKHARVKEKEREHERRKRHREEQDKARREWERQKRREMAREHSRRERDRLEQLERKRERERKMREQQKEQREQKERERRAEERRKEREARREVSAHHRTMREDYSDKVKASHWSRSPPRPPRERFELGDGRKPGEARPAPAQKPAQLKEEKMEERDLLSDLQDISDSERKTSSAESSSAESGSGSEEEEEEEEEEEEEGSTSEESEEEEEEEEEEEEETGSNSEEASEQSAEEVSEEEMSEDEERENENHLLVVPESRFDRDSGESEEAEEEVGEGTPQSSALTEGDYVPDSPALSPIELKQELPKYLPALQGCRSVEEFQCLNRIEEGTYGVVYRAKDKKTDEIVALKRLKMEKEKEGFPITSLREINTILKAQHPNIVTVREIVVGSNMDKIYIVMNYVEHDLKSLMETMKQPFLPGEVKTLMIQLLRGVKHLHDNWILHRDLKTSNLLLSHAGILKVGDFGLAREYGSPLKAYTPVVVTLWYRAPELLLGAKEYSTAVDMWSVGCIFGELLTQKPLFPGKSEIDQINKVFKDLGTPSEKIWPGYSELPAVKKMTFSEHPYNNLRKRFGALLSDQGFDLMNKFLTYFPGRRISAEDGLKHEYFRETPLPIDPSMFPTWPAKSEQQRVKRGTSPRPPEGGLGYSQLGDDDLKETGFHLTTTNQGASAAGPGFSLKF
- measurementProtocol: Chemoproteomic profiling, MS/MS data for all quantified proteins (Table S1 E3)
- Procedure: Human extracts were prepared as described ([Bantscheff et al., 2011]). […] Protein concentrations were determined using a Bradford assay (BioRad). […] Proteins were digested according to a modified single pot solid-phase sample preparation (SP3) protocol ([Hughes et al., 2014]). Peptides were labeled with isobaric mass tags (Thermo Fisher Scientific, Waltham, MA) using 10-plex TMT reagents, enabling relative quantification of 10 conditions in a single experiment ([Werner et al., 2014]). […]
pIC50: −log10 of the molar value.
attributeMeasured: pIC50

In: Looking for the measured pIC50 of CC(C)(CN)c1nc(-c2ccc(Cl)c(O)c2)c(-c2ccncc2)[nH]1 , can you help?
Out: ≤ 4.52

====

- testTarget: nemo-like kinase (Homo sapiens, UniProt Q9UBE8)
- Construct: human cell/tissue protein extract (a mixture of HEK-293, K-562, Hep G2 , and placental cells); endogenous in cells
- Sequence (Q9UBE8 whole entry): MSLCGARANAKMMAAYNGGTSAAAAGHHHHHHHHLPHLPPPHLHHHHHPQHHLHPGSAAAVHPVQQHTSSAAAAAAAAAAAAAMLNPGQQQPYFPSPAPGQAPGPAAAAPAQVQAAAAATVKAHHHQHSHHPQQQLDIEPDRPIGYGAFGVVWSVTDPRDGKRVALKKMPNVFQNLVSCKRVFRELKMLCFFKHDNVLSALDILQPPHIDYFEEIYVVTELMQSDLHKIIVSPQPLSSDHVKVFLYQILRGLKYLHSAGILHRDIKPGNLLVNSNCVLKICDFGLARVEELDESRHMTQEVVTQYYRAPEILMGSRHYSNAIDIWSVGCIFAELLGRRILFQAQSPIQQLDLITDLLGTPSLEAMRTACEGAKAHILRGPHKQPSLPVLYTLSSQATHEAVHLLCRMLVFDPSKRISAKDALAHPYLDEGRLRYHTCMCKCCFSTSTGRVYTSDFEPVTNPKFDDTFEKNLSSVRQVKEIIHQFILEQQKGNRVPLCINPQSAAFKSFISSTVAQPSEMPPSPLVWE
- measurementProtocol: Chemoproteomics in human mixed tissue extracts
- particulars: read-out: Kdapp
attributeMeasured: Kd
Please provide the amount together with its unit, number first.

In: Looking for the measured Kd of CC(C)(CN)c1nc(-c2ccc(Cl)c(O)c2)c(-c2ccncc2)[nH]1 , can you help?
Out: 20 nM

====

Would you kindly list IC50 for each of these molecules?
- Test system: Pf Dd2-B2 ABS parasites
- measurementProtocol: 72-h asexual blood stage (ABS) growth inhibition assay, Dd2-B2
- Assay type: cell-based, Plasmodium falciparum
- particulars: Dd2-B2 wild-type, 72 h; read-out: Mean IC50, 72 h ABS activity
Respond numerically; units are nM and should not be typed.

In: Looking for the measured IC50 of CC(C)(CNC(=O)[C@H]1CCCCN1)c1nc(-c2ccc(Cl)c(O)c2)c(-c2ccncc2)[nH]1 , can you help?
Out: 186

In: Looking for the measured IC50 of Cl.NCC1(c2nc(-c3ccc(Cl)c(O)c3)c(-c3ccncc3)[nH]2)CCCCC1 , can you help?
Out: 140

In: Looking for the measured IC50 of CC(C)(CNC(=O)[C@H]1CCCN1)c1nc(-c2ccc(Cl)c(O)c2)c(-c2ccncc2)[nH]1 , can you help?
Out: 180

In: Looking for the measured IC50 of CN1CCC=C(C(=O)NCC(C)(C)c2nc(-c3ccc(Cl)c(O)c3)c(-c3ccncc3)[nH]2)C1 , can you help?
Out: 394

In: Looking for the measured IC50 of CC(C)(C)CNCC(C)(C)c1nc(-c2ccc(Cl)c(O)c2)c(-c2ccncc2)[nH]1 , can you help?
Out: 210

In: Looking for the measured IC50 of CNCC(C)(C)c1nc(-c2ccc(Cl)c(O)c2)c(-c2ccncc2)[nH]1.Cl , can you help?
Out: 187

In: Looking for the measured IC50 of CC(C)(CN)c1nc(-c2ccc(Br)c(O)c2)c(-c2ccncc2)[nH]1 , can you help?
Out: 85.9

In: Looking for the measured IC50 of CC(C)(CNC(=O)[C@@H]1CCCCN1)c1nc(-c2ccc(Cl)c(O)c2)c(-c2ccncc2)[nH]1.Cl , can you help?
Out: 250

In: Looking for the measured IC50 of CC(C)(CN)c1cc(-c2ccc(Cl)c(O)c2)c(-c2ccncc2)o1.Cl , can you help?
Out: 277

====

- testTarget: transforming growth factor β receptor 2 (Homo sapiens, UniProt P37173)
- Construct: human cell/tissue protein extract (a mixture of HEK-293, K-562, Hep G2 , and placental cells); endogenous in cells
- Sequence (P37173 23-567): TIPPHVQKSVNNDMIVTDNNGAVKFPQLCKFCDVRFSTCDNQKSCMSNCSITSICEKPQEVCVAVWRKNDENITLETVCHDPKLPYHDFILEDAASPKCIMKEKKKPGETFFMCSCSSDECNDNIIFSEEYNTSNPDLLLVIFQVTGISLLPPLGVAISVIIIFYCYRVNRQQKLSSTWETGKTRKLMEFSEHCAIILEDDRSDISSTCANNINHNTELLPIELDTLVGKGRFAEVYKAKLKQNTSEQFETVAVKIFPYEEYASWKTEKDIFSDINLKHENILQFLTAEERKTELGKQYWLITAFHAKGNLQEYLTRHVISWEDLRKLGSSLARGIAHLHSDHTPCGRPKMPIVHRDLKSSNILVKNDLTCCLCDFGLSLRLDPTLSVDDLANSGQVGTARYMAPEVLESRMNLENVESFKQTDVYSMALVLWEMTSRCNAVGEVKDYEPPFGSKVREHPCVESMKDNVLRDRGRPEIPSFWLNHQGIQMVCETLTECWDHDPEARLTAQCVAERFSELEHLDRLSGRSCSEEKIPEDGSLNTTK
- measurementProtocol: Chemoproteomics in human mixed tissue extracts
- particulars: read-out: Kdapp
- Method: Human extracts were prepared as described ([Bantscheff et al., 2011]). […] Protein concentrations were determined using a Bradford assay (BioRad). […] Proteins were digested according to a modified single pot solid-phase sample preparation (SP3) protocol ([Hughes et al., 2014]). Peptides were labeled with isobaric mass tags (Thermo Fisher Scientific, Waltham, MA) using 10-plex TMT reagents, enabling relative quantification of 10 conditions in a single experiment ([Werner et al., 2014]). […]
attributeMeasured: Kd (nM)
Respond numerically; units are nM and should not be typed.

In: Looking for the measured Kd of CC(C)(CN)c1nc(-c2ccc(Cl)c(O)c2)c(-c2ccncc2)[nH]1 , can you help?
Out: 35

====

- testTarget: PKG cKD line
- measurementProtocol: Compound susceptibility assay using cKD lines (72 h, Renilla luciferase)
- Format: cell-based, Plasmodium falciparum
- particulars: PKG cKD line, Control, [aTc] used 50.0
attributeMeasured: IC50 (nM)
Respond numerically; units are nM and should not be typed.

In: Looking for the measured IC50 of CC(C)(CN)c1nc(-c2ccc(Cl)c(O)c2)c(-c2ccnc(N)n2)[nH]1 [MMV030734] , can you help?
Out: 20.8

====

- Tested on: sel. Dd2-B2 TKL3T1268R
- measurementProtocol: 72-h ABS assay, MMV030084-selected line
- Assay type: cell-based, Plasmodium falciparum
attributeMeasured: IC50 (nM)
Respond numerically; units are nM and should not be typed.

In: Looking for the measured IC50 of CC(C)(CN)c1nc(-c2ccc(Cl)c(O)c2)c(-c2ccnc(N)n2)[nH]1 [MMV030734] , can you help?
Out: 197

In: Looking for the measured IC50 of Cl.NCC1(c2nc(-c3ccc(Cl)c(O)c3)c(-c3ccncc3)[nH]2)CCCCC1 [TCMDC-141154] , can you help?
Out: 369

In: Looking for the measured IC50 of CC(C)(CNC(=O)[C@H]1CCCN1)c1nc(-c2ccc(Cl)c(O)c2)c(-c2ccncc2)[nH]1 [TCMDC-141060] , can you help?
Out: 590

In: Looking for the measured IC50 of CC(C)(CNC(=O)[C@@H]1CCCCN1)c1nc(-c2ccc(Cl)c(O)c2)c(-c2ccncc2)[nH]1.Cl [TCMDC-141079] , can you help?
Out: 771

In: Looking for the measured IC50 of CNCC(C)(C)c1nc(-c2ccc(Cl)c(O)c2)c(-c2ccncc2)[nH]1.Cl [TCMDC-140762] , can you help?
Out: 443

In: Looking for the measured IC50 of CC(C)(CNC(=O)[C@H]1CCCCN1)c1nc(-c2ccc(Cl)c(O)c2)c(-c2ccncc2)[nH]1 [TCMDC-141070] , can you help?
Out: 717

In: Looking for the measured IC50 of CC(C)(CN)c1cc(-c2ccc(Cl)c(O)c2)c(-c2ccncc2)o1.Cl [TCMDC-141334] , can you help?
Out: 599

In: Looking for the measured IC50 of CN1CCC=C(C(=O)NCC(C)(C)c2nc(-c3ccc(Cl)c(O)c3)c(-c3ccncc3)[nH]2)C1 [TCMDC-140700] , can you help?
Out: 1190

In: Looking for the measured IC50 of CC(C)(C)CNCC(C)(C)c1nc(-c2ccc(Cl)c(O)c2)c(-c2ccncc2)[nH]1 [TCMDC-140549] , can you help?
Out: 287

In: Looking for the measured IC50 of CC(C)(CN)c1nc(-c2ccc(Br)c(O)c2)c(-c2ccncc2)[nH]1 [TCMDC-140680] , can you help?
Out: 249
